- assaySystem: human α1G T-type channels (Homo sapiens, UniProt O43497)
- testDescription: T-type calcium channel block, whole cell patch clamp, α1G
- studyConditions: HEK cells stably expressing human α1G; mainly non-inactivated protocol; values above 10,000 nM represented as 10000
What pIC50 was measured for each of the following?
To interpret pIC50, take it as minus log10 of a concentration measured in moles per litre.

Q: Which pIC50 value belongs to O=C(N[C@H]1CC[C@@](F)(S(=O)(=O)c2cccc(C(F)(F)F)c2)CC1)c1ccc(F)c(Cl)c1 ?
Ans: 5.56

Q: Now the compound O=C(N[C@H]1CC[C@H](CS(=O)(=O)c2cccc(C(F)(F)F)c2)CC1)c1cc(F)cc(Cl)c1
Ans: 5.44

Q: Now the compound O=C(NC[C@]1(O)CC[C@@H](S(=O)(=O)c2cccc(C(F)(F)F)c2)CC1)c1ccc(F)c(C(F)(F)F)c1
Ans: 5.67

* * *

- assaySystem: Human Cav 2.2 channels (Homo sapiens)
- Sequence (Q00975 whole entry): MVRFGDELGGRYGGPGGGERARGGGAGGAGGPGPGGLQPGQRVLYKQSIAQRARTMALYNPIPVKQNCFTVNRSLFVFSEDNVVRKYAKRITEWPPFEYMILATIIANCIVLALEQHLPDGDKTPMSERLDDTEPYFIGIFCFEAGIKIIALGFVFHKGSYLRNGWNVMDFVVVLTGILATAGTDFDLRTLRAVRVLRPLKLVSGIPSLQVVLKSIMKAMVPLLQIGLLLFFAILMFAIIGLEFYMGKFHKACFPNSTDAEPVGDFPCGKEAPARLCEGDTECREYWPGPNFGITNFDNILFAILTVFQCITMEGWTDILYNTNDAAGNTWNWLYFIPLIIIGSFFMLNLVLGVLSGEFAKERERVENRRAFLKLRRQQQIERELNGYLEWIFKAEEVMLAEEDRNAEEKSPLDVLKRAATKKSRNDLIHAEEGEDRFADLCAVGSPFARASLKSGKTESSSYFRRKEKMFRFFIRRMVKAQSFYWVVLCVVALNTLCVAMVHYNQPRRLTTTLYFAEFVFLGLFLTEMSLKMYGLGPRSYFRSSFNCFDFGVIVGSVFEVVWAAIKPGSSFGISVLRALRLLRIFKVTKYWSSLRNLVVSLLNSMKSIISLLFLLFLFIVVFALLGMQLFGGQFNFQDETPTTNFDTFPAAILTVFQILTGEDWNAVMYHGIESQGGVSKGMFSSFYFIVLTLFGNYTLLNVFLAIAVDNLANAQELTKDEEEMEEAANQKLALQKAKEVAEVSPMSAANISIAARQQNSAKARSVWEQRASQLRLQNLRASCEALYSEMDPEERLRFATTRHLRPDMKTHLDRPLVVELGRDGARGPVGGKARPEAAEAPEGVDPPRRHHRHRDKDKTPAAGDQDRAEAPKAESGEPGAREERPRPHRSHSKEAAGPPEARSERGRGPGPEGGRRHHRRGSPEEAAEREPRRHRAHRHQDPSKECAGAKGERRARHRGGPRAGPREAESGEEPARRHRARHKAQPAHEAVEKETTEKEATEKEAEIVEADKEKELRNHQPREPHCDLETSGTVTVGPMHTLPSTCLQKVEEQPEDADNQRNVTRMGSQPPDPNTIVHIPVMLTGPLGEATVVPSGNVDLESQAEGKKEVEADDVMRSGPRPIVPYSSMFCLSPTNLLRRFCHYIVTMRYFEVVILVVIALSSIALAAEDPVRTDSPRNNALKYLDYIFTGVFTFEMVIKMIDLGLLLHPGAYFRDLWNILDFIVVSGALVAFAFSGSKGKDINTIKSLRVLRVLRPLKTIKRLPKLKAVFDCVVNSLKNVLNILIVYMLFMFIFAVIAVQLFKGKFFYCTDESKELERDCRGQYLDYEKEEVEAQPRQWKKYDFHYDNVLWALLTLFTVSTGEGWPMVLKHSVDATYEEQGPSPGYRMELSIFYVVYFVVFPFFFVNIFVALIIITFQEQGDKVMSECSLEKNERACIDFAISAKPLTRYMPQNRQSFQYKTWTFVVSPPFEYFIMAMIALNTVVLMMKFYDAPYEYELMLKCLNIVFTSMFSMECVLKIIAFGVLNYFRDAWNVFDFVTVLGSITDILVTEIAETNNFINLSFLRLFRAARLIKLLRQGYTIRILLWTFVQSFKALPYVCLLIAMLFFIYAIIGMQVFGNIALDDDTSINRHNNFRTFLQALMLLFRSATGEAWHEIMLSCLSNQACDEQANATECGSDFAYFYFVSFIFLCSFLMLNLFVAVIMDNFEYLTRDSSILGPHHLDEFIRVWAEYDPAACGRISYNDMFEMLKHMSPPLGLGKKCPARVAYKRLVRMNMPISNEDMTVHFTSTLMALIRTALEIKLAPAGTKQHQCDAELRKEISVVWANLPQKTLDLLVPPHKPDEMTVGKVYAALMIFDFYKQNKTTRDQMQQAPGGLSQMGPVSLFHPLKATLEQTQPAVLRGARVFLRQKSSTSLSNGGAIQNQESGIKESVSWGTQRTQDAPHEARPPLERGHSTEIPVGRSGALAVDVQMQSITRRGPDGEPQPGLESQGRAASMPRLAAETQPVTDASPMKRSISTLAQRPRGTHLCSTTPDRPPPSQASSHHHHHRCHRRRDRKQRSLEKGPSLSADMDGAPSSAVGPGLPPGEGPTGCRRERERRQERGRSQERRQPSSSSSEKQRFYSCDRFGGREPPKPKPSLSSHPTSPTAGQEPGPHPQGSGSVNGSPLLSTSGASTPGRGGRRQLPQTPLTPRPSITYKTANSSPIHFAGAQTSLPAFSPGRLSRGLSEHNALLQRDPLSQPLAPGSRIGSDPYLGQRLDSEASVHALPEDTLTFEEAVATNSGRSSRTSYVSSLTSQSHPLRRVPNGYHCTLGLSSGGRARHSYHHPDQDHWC
- Sequence (P54289 25-1103 partner): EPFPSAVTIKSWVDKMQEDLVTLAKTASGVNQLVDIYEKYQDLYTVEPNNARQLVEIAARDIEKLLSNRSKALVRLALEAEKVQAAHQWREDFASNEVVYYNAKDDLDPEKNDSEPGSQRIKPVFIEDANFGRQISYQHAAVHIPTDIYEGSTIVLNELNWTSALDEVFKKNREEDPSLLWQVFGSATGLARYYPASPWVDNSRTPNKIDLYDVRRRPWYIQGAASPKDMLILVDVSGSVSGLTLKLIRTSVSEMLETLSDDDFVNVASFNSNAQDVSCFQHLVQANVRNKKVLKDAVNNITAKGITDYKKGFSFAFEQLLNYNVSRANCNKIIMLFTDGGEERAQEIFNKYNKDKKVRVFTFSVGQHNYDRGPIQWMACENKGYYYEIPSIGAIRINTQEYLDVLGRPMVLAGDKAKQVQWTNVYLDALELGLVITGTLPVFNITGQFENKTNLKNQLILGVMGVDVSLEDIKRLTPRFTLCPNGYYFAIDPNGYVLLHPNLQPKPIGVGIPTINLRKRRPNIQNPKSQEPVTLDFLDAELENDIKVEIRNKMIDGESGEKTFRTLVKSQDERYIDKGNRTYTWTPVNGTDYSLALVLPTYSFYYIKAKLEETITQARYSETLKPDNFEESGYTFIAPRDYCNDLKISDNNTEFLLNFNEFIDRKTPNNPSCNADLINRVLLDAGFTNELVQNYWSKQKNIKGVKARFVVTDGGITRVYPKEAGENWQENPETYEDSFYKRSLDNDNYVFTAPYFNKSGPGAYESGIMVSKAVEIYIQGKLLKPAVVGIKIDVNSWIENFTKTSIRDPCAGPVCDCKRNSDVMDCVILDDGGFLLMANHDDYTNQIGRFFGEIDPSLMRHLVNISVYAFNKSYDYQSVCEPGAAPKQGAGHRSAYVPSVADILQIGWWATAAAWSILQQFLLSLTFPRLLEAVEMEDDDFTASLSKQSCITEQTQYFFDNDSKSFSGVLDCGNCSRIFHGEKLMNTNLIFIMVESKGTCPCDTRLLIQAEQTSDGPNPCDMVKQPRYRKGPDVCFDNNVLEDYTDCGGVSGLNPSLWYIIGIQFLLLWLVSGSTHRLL
- Sequence (P54284 whole entry partner): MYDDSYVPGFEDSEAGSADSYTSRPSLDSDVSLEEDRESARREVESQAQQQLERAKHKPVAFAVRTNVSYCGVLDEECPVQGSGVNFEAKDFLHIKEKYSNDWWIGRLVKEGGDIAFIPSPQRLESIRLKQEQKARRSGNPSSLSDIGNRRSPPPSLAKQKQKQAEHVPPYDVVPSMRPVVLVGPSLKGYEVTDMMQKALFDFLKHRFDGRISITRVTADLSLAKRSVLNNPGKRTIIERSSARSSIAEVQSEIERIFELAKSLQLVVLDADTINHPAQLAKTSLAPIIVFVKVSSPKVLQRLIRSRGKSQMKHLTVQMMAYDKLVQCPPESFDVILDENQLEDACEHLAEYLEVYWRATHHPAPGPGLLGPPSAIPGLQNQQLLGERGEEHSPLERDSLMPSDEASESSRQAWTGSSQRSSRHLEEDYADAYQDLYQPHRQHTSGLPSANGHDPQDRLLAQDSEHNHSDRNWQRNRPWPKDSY
- testDescription: Fluorescent assay for CaV2.2 channels using potassium depolarization (VIPR/FLIPR)
- Format: cell-based
- studyConditions: FLIPR data; ratio closed/inactivated IC50
Kind request: treat 7 as inclusive, so CAv2.2 IC50 Ratio closed/inact. at 7 or higher is Fulfilled, anything lower is Not fulfilled.

Q: Can Cc1nc(S(=O)(=O)N[C@H]2C[C@@H](C(C)(C)S(=O)(=O)c3cccc(C(F)(F)F)c3)C2)cn1C be said to have CAv2.2 IC50 Ratio closed/inact. at or above 7?
Ans: Not fulfilled

Q: Now the compound CC(C)(C[C@H]1C[C@@H](NC(=O)c2cnc(C(F)(F)F)nc2)C1)S(=O)(=O)c1cccc(C(F)(F)F)c1
Ans: Fulfilled

Q: Now the compound CC(C)([C@H]1C[C@@H](NC(=O)c2cnc(C(F)(F)F)nc2)C1)S(=O)(=O)c1cccc(C(F)(F)F)c1
Ans: Fulfilled

Q: Now the compound CC(C)S(=O)(=O)c1cc(C(F)(F)F)cnc1C(=O)NCC1CC(C(C)(C)S(=O)(=O)c2cccc(C(F)(F)F)c2)C1 (stereo not shown)
Ans: Fulfilled

Q: Now the compound CC(C)S(=O)(=O)c1cc(C(F)(F)F)cnc1C(=O)N[C@H]1C[C@@H](C(C)(C)S(=O)(=O)c2cccc(OC(F)(F)F)c2)C1
Ans: Fulfilled

Q: Now the compound CC(C)([C@H]1C[C@@H](NC(=O)c2ccc(F)c(Cl)c2)C1)S(=O)(=O)c1cccc(OC(F)(F)F)c1
Ans: Not fulfilled

Q: Now the compound Cc1nc(S(=O)(=O)N[C@H]2C[C@@H](C(C)(C)S(=O)(=O)c3cc(F)cc(C(F)(F)F)c3)C2)cn1C
Ans: Not fulfilled

Q: Now the compound CC(C)([C@H]1C[C@@H](NS(=O)(=O)c2ccc(C(F)(F)F)cc2)C1)S(=O)(=O)c1cc(F)cc(C(F)(F)F)c1
Ans: Fulfilled

Q: Now the compound CC(C)([C@H]1C[C@H](NS(=O)(=O)c2ccc(OC(F)(F)F)cc2)C1)S(=O)(=O)c1cc(F)cc(C(F)(F)F)c1
Ans: Not fulfilled

Q: Now the compound CC(C)(C[C@H]1C[C@H](NC(=O)c2ccc(Cl)cn2)C1)S(=O)(=O)c1cccc(C(F)(F)F)c1
Ans: Not fulfilled

Q: Now the compound CC(C)([C@H]1C[C@@H](NS(=O)(=O)c2ccc(C(F)(F)F)cc2Cl)C1)S(=O)(=O)c1cccc(C(F)(F)F)c1
Ans: Fulfilled

Q: Now the compound CC(C)([C@H]1C[C@@H](NC(=O)c2ccc(Cl)cc2S(C)(=O)=O)C1)S(=O)(=O)c1cccc(C(F)(F)F)c1
Ans: Fulfilled
